Reported IC50 values are given for each entry in this list.
tested on: P388-ADR(0.0), ADRIAMYCIN-resistant variant of P388; assay: In vitro cytotoxicity (MTT), P388-ADR(0.0); type: cell-based; conditions: Mus musculus, 72 h, inoculum grown in drug-free medium, Table 2
Where a name gives a salt, the structure may show the parent alone.

{"columns": ["Molecule", "IC50"],
 "data": [
  ["CCC[C@H](N)C(=O)NC1CCN(c2c(F)cc3c(=O)c(C(=O)O)cn4c3c2Oc2cc(C)ccc2-4)C1 (stereo partly shown) [Example 10, hydrochloride]", "0.447 µg/mL"],
  ["CCC[C@H](N)C(=O)NC1CCN(c2c(F)cc3c(=O)c(C(=O)O)cn4c3c2Oc2ccccc2-4)C1 (stereo partly shown) [Example 8, hydrochloride]", "0.394 µg/mL"],
  ["Cc1ccc2c(c1)Oc1c(N3CCC(NC(=O)[C@H](C)N)C3)c(F)cc3c(=O)c(C(=O)O)cn-2c13 (stereo partly shown) [Example 9, hydrochloride]", "0.19 µg/mL"],
  ["N[C@H]1CCN(c2c(F)cc3c(=O)c(C(=O)O)cn4c3c2Oc2ccccc2-4)C1 [Example 16, hydrochloride]", "0.12 µg/mL"],
  ["COc1cccc2c1C(=O)c1c(O)c3c(c(O)c1C2=O)C[C@@](O)(C(=O)CO)C[C@@H]3O[C@H]1C[C@H](N)[C@H](O)[C@H](C)O1 [ADR, doxorubicin hydrochloride, reference compound]", "2.59 µg/mL"],
  ["Cc1ccc2c(c1)Oc1c(N3CC[C@H](N)C3)c(F)cc3c(=O)c(C(=O)O)cn-2c13 [Example 18, hydrochloride]", "0.13 µg/mL"],
  ["Cc1ccc2c(c1)-n1cc(C(=O)O)c(=O)c3cc(F)c(N4CCC(N)C4)c(c31)O2 (stereo not shown) [Example 4, hydrochloride]", "0.24 µg/mL"]
]}
